For each entry below, report its protein stability index value.
B1: KLHL13 (parent)
chain: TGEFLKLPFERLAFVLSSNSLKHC

Variants of: B1
Test: protein stability index of a GFP-peptide fusion (GPS, HEK-293T) (PSI 1-6); higher = more stable;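 note: lentivirally expressed fusions sorted by FACS into six bins by GFP to DsRed ratio, PSI derived from sequencing read proportions per bin multiplied by bin number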
Settings: c terminus: a fixed tail appended
One number for each entry.

Answered cases to consult:
RESIDUE_CODES: TGEFLKLPFERRAFVLSSNSLKHC [L12R]
READOUT_NUMBER: 2.35

RESIDUE_CODES: TGEFLKLPFERLAFVLSSNSLMHC [K22M]
READOUT_NUMBER: 3.25

RESIDUE_CODES: TGEFLKLPFERLAFVLSSNSLKVC [H23V]
READOUT_NUMBER: 2.8

RESIDUE_CODES: TGEGLKLPFERLAFVLSSNSLKHC [F4G]
READOUT_NUMBER: 1.45

RESIDUE_CODES: TGNFLKLPFERLAFVLSSNSLKHC [E3N]
READOUT_NUMBER: 5.52

// each variant listed below needs its protein stability index
1. TGEFLKLPFERLAFVASSNSLKHC [L16A]
2. TGEFLKLPFERLAFFLSSNSLKHC [V15F]
3. TGEFLKLPFERLAFVLSSNSLKHV [C24V]

1. 1.74
2. 2.39
3. 2.76

// each variant listed below needs its protein stability index
1. TGEFLKLPFEMLAFVLSSNSLKHC [R11M]
2. TGEFLKLCFERLAFVLSSNSLKHC [P8C]
3. TGEFLKLPFGRLAFVLSSNSLKHC [E10G]
4. TGEFLKLPFERLAFVLSSNSLSHC [K22S]
5. TGEFLKLQFERLAFVLSSNSLKHC [P8Q]
6. TGEFLKLPFERLAFVLSSNSLKHI [C24I]

3.39
1.84
2.42
4.04
1.41
4.16
